IC90, cell-to-cell spread inhibitory activity (LLC-MK2 cells stably expressing TMPRSS2) reference
# Tested target: F protein of human metapneumovirus strain JPS02-76 (type B1), on infectious virus (human metapneumovirus, strain JPS02-76 …, UniProt Q6WB98 19-539)
# Method notes: cell-based or functional assay
Measured quantity: IC90, cell-to-cell spread inhibitory activity (LLC-MK2 cells stably expressing TMPRSS2) (mg/L)

{"Binder": "EV046136 (antibody, human IgG1, kappa, V domains shown) VH: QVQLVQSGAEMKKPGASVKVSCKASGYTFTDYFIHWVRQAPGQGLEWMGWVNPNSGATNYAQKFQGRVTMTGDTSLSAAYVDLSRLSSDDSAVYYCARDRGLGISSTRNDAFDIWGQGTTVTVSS VL: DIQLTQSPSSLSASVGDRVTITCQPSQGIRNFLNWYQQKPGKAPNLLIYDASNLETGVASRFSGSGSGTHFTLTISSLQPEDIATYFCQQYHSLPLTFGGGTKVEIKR", "Observed result": 0.212}
{"Binder": "EV046124 (antibody, human IgG1, lambda, V domains shown) VH: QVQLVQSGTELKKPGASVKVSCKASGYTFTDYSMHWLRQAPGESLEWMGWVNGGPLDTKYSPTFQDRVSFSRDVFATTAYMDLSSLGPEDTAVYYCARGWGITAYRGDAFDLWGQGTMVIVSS VL: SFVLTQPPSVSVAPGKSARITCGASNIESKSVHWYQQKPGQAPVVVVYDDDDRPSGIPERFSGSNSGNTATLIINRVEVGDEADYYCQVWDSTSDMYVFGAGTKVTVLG", "Observed result": 0.26}
{"Binder": "EV046143 (antibody, human IgG1, kappa, V domains shown) VH: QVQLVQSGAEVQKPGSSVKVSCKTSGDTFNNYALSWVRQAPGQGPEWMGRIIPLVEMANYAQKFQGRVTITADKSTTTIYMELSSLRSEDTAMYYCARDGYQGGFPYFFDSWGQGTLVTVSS VL: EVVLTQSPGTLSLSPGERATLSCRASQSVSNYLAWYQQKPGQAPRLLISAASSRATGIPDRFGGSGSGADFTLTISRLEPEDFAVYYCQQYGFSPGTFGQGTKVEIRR", "Observed result": 0.886}
